- Target Or System: Tyrosine-protein kinase ABL1 (Homo sapiens, UniProt P00519)
- Sequence (P00519 whole entry): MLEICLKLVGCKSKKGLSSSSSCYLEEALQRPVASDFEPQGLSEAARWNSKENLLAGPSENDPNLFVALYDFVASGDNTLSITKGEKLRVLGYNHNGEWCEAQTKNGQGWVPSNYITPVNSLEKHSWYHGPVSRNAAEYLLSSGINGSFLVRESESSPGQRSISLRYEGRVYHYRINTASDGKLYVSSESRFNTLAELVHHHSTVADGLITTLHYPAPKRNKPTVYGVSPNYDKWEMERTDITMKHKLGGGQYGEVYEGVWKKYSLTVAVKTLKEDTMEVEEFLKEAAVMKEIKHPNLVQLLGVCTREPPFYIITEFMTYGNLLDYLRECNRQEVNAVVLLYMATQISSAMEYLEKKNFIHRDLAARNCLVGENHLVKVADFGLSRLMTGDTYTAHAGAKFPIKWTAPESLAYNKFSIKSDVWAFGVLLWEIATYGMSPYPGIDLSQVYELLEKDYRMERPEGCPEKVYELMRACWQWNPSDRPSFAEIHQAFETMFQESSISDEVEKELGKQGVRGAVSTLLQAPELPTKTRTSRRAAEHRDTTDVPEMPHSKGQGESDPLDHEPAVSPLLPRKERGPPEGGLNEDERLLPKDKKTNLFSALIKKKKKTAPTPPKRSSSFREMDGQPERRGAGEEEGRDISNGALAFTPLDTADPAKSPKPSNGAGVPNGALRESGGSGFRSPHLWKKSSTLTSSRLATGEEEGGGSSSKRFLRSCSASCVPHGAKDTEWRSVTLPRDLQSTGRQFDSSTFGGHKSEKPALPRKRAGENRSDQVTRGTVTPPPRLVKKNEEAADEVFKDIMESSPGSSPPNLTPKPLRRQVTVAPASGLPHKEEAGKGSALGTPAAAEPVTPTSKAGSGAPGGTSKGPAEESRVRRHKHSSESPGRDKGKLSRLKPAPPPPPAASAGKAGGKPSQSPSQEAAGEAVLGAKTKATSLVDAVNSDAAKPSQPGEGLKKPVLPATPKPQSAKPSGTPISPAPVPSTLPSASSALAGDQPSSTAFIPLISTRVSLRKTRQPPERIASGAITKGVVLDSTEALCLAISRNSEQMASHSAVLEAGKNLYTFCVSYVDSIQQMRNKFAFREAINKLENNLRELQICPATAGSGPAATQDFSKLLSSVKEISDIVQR
- Experiment Description: Inhibition of recombinant human His-tagged full length ABL1 allosteric site expressed in baculovirus expression system by TR-FRET assay
Reported Endpoint: pIC50
Keep in mind that pIC50 stands for -log10 of concentration in molar terms.

1. CN[C@@H](C)C(=O)N[C@H](C(=O)N1CCC[C@H]1c1nc(C(=O)c2cccc(OCCOCCOCCNC(=O)C3CCN(c4ncc(C(=O)Nc5ccc(OC(F)(F)Cl)cc5)cc4-c4ccn[nH]4)C3)c2)cs1)C1CCCCC1 (some centres undefined)    6.44

Can you look up the measured pIC50 of "CN[C@@H](C)C(=O)N[C@H](C(=O)N1CCC[C@H]1c1nc(C(=O)c2cccc(OCCOCCOCCNC(=O)c3cccc(-c4cc(Nc5ccc(OC(F)(F)F)cc5)ncn4)c3)c2)cs1)C1CCCCC1" for me? 5.70

What about this compound? COC(=O)C1CCN(c2ncc(C(=O)Nc3ccc(OC(F)(F)Cl)cc3)cc2-c2ccn[nH]2)C1 (centres undefined) 7.46

What about this compound? CN[C@@H](C)C(=O)N(C)[C@H](C(=O)N1CCC[C@H]1c1nc(C(=O)c2cccc(OCCOCCOCCNC(=O)C3CCN(c4ncc(C(=O)Nc5ccc(OC(F)(F)Cl)cc5)cc4-c4ccn[nH]4)C3)c2)cs1)C1CCCCC1 (some centres undefined) 6.47
